# Study System: T1, G-CSF receptor (natural G-CSF receptor, found on hematopoietic cells) (mouse (bone marrow cells of Balb C …, UniProt P40223 26-837))
# T1 sequence (looked up): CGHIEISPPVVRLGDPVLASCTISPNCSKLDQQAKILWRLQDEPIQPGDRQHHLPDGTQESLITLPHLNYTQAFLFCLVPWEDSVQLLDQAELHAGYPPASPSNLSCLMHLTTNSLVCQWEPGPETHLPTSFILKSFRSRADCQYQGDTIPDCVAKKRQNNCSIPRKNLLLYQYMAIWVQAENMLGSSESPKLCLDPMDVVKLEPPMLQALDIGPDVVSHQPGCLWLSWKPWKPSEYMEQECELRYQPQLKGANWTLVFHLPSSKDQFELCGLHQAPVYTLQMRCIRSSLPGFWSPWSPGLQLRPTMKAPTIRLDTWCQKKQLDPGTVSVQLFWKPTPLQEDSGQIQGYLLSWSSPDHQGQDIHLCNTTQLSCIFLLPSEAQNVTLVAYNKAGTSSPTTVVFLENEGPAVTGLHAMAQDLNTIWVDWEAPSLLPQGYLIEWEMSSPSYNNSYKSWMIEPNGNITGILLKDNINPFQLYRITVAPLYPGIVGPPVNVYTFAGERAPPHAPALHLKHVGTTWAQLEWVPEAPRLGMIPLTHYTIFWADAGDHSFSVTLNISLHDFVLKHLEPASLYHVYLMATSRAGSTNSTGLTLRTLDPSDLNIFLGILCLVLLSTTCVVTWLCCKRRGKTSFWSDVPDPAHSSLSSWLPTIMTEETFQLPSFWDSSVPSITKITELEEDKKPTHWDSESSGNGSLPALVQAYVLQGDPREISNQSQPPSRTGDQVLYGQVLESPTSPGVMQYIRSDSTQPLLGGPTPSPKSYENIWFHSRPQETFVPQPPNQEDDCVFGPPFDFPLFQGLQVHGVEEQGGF
# Assay Overview: cell-based or functional assay
Measured Parameter: % Normal G-CSF Activity (3H-thymidine uptake, mouse bone marrow cells) (%)
Note: unit % is implicit; provide only the numeric part.

Illustrative cases are given below, each with its answer.
G-CSF analog Gln121->Ala121 (ligand) MTPLGPASSLPQSFLLKCLEQVRKIQGDGAALQEKLCATYKLCHPEELVLLGHSLGIPWAPLSSCPSQALQLAGCLSQLHSGLFLYQGLLQALEGISPELGPTLDTLQLDVADFATTIWQAMEELGMAPALQPTQGAMPAFASAFQRRAGGVLVASHLQSFLEVSYRVLRHLAQP: 100
G-CSF analog His53->Ala53 (ligand) MTPLGPASSLPQSFLLKCLEQVRKIQGDGAALQEKLCATYKLCHPEELVLLGASLGIPWAPLSSCPSQALQLAGCLSQLHSGLFLYQGLLQALEGISPELGPTLDTLQLDVADFATTIWQQMEELGMAPALQPTQGAMPAFASAFQRRAGGVLVASHLQSFLEVSYRVLRHLAQP: 8.3
G-CSF analog Glu47->Ala47 (ligand) MTPLGPASSLPQSFLLKCLEQVRKIQGDGAALQEKLCATYKLCHPEALVLLGHSLGIPWAPLSSCPSQALQLAGCLSQLHSGLFLYQGLLQALEGISPELGPTLDTLQLDVADFATTIWQQMEELGMAPALQPTQGAMPAFASAFQRRAGGVLVASHLQSFLEVSYRVLRHLAQP: 0

Let us examine a further case.
Quick check: % Normal G-CSF Activity (3H-thymidine uptake, mouse bone marrow cells) of G-CSF analog His44->Lys44 (ligand) MTPLGPASSLPQSFLLKCLEQVRKIQGDGAALQEKLCATYKLCKPEELVLLGHSLGIPWAPLSSCPSQALQLAGCLSQLHSGLFLYQGLLQALEGISPELGPTLDTLQLDVADFATTIWQQMEELGMAPALQPTQGAMPAFASAFQRRAGGVLVASHLQSFLEVSYRVLRHLAQP ?
70

Origin of the recorded values: patent US20030171559A1
